B1: Peroxisome proliferator-activated receptor delta, residues 71 to 145; numbered along this chain, Q03181 (parent)
chain: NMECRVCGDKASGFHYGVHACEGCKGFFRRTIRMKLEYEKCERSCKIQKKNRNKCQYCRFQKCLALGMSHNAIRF

Variants of: B1
Test: abundance fitness (aPCA) (normalised: wild type 0, dead -1); higher = more abundant; growth selection in yeast, the domain comes from the species named
Settings: Homo sapiens
Tag: 1 if measured abundance fitness is not below -0.2, -1 if it is.

C45N    -1
A72N    1
F27M    -1
H70A    1
R59N    -1
G17M    1
R29A    1
F27Q    -1
R52E    1
R33T    1

stdin: Determine whether measured abundance fitness meets or exceeds -0.2 for `K62S`
stdout: -1

stdin: Determine whether measured abundance fitness meets or exceeds -0.2 for `G67T`
stdout: -1

stdin: Determine whether measured abundance fitness meets or exceeds -0.2 for `G13F`
stdout: -1

stdin: Determine whether measured abundance fitness meets or exceeds -0.2 for `C45I`
stdout: -1

stdin: Determine whether measured abundance fitness meets or exceeds -0.2 for `C55D`
stdout: -1
